# method notes: NOD1 signaling inhibitors, primary screen, cell-based, luminescence, uHTS (AID 1578);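 also: HEK-293T reporter cells stimulated with the NOD1 agonist gamma-tri-DAP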
# study conditions: NOD1-driven NF-kB luciferase reporter cells, at 4 µM
Hit rate of the full screen: of about 290,000 compounds, about 3,000 (1%) were called active. Rule as the data show it: active = inhibition mostly above about 36% (no sharp cut-off); inactive = mostly below about 34%. Many of the other results were omitted from the sample, so actives are more common in it than they were.
Classes used: active, inactive

>  <compound>
Cc1ccc(CNC(=O)Cc2ccc(-n3cccc3)cc2)cc1

>  <class label>
inactive

$$$$
>  <compound>
Cc1cc2oc(=O)sc2cc1NS(=O)(=O)c1cccc2cccnc12

>  <class label>
inactive

$$$$
>  <compound>
CCCc1nnc(NC(=O)CCC(=O)N2CCN(Cc3cc(F)ccc3OC)CC2)s1

>  <class label>
inactive

$$$$
>  <compound>
Cc1cccn2c(=O)c(C=Nc3c(C)n(C)n(-c4ccccc4)c3=O)c(N3CCCC3)nc12

>  <class label>
inactive

$$$$
>  <compound>
CCn1c(=O)cc(OCC(=O)NCc2cccs2)c2ccccc21

>  <class label>
inactive

$$$$
>  <compound>
O=C(c1ccc(Cl)cc1)N1CCN(CCc2ccccn2)CC1

>  <class label>
inactive

$$$$
>  <compound>
CCCCCCCCSc1nnc(/N=C/N(C)C)s1

>  <class label>
inactive

$$$$
>  <compound>
CNCCCOc1ccc(C)cc1Br

>  <class label>
inactive

$$$$
>  <compound>
CCSc1nnc(NC(=O)c2cccnc2)s1

>  <class label>
inactive

$$$$
>  <compound>
CN(C)S(=O)(=O)c1cccc(CSc2cccc[n+]2[O-])c1

>  <class label>
inactive

$$$$
>  <compound>
O=C(COc1ccccc1)NCc1ccc(-n2cccc2)cc1

>  <class label>
inactive

$$$$
>  <compound>
Cc1cc(Sc2nnc(N)s2)c2ccccc2n1

>  <class label>
active

$$$$
>  <compound>
CC(C)NC(=O)C1CCN(C2CCN(C(=O)c3cc4c(s3)CCCCC4)CC2)CC1

>  <class label>
inactive

$$$$
>  <compound>
COc1ccc2nc(C)cc(Sc3nc4ccccc4s3)c2c1

>  <class label>
active

$$$$
>  <compound>
CCOC(=O)c1ccc(NS(=O)C23CC4CC(CC(C4)C2)C3)cc1 (centres undefined)

>  <class label>
inactive

$$$$
>  <compound>
CCN(CC)S(=O)(=O)c1ccc2oc(C(=O)NCCCN3CCOCC3)c(C)c2c1

>  <class label>
inactive

$$$$
>  <compound>
CC(C)CC(=O)c1c[nH]c(C(=O)O)c1

>  <class label>
inactive

$$$$
>  <compound>
Cc1cc(C)n2nc(SCc3cccc(S(=O)(=O)N(C)C)c3)nc2n1

>  <class label>
inactive

$$$$
>  <compound>
Cc1ccc(OCCCn2cc(C#N)c3ccccc32)cc1

>  <class label>
inactive

$$$$
>  <compound>
CC1CCCCC1NC(=O)CN1C(=O)CSc2cc(S(=O)(=O)N3CCCCCC3)ccc21 (centres undefined)

>  <class label>
inactive

$$$$
>  <compound>
CN(C)/C=C(\C=N\OCc1ccc(Cl)cc1Cl)C(=O)Nc1ccc(Cl)c(Cl)c1

>  <class label>
active

$$$$
>  <compound>
COc1ccc2nc(C)cc(SCC(=O)NNC(=O)COc3ccccc3)c2c1

>  <class label>
inactive

$$$$
>  <compound>
Cc1cc(N)c2ccccc2n1

>  <class label>
inactive

$$$$
>  <compound>
Cc1nc2ccccc2nc1CSc1nnc(N)s1

>  <class label>
inactive

$$$$

Provenance of the data: PubChem BioAssay AID1578
